Structures can show the parent of a compound that is named as a salt.
Measure Name: melting point

As a guide, the following entries are already answered.
COC1(C(C)N)CCN(c2c(F)cc3c(=O)n(N)c(=O)n(C4CC4)c3c2C)C1.Cl (stereo not shown): 190 to 192 °C
Cc1c(N2CCCC2)c(F)cc2c(=O)n(N)c(=O)n(C3CC3)c12.Cl: 178 to 180 °C
Cl.NCCC1CCN(c2c(F)cc3c(=O)n(N)c(=O)n(C4CC4)c3c2Cl)C1 (stereo not shown): 158 to 160 °C
CS(=O)(=O)NCC1CCN(c2c(F)cc3c(=O)n(N)c(=O)n(C4CC4)c3c2Cl)C1 (stereo not shown) [Compound 74]: 109 to 112 °C
Cl.Nn1c(=O)c2cc(F)c(C3CCC4CNCC4N3)nc2n(C2CC2)c1=O (stereo not shown): 200 to 202 °C
COc1c(N2CC(CN)C3(CC3)C2)c(F)cc2c(=O)n(N)c(=O)n(C3CC3)c12.Cl (stereo not shown): 178 °C

**Query** Can you look up the measured melting point of COc1c(N2CC(C(C)N)C(C)(C)C2)c(F)cc2c(=O)n(N)c(=O)n(C3CC3)c12.Cl (stereo not shown) for me?
**Result** 230 °C

**Query** Give the measured melting point of `CCn1c(=O)n(N)c(=O)c2ccc(N3CC[C@H](N)C3)c(F)c21.Cl` .
**Result** 248 to 251 °C

**Query** # melting point lookup, item Cl.N[C@@H]1CN(c2c(F)cc3c(=O)n(N)c(=O)n(C4CC4)c3c2Cl)C[C@H]1c1ccc(O)cc1 (relative stereo)
**Result** > 200 °C

**Query** GET /values?readout=melting point&item= CC1(CN)CCN(c2c(F)cc3c(=O)n(N)c(=O)n(C4CC4)c3c2Cl)C1 (stereo not shown) (as salt: hydrochloride) [Compound 3]
**Result** 166 to 168 °C

**Query** melting point for CC(C)n1c(=O)n(N)c(=O)c2cc(F)c(N3CCC(N)C3)c(Cl)c21 (stereo not shown) (as salt: trifluoroacetate) ?
**Result** 151 °C

**Query** Which value of melting point has been reported for Cc1c(N2CCC(CN)C2)c(F)cc2c(=O)n(N)c(=O)n(C3CC3)c12.O=C(O)C(F)(F)F (stereo not shown) in the records?
**Result** 82 to 84 °C

**Query** State the recorded melting point for this entry: `C[C@H](N)[C@@H]1CCN(c2nc3c(cc2F)c(=O)n(N)c(=O)n3C2CC2)C1.Cl`
**Result** > 260 °C

**Query** Tell me the measured melting point of Cl.NCC1CCN(c2cc3c(cc2F)c(=O)n(N)c(=O)n3C2CC2)C1 (stereo not shown) , please.
**Result** 170 to 172 °C

**Query** # lookup: melting point of COc1c(N2C[C@@H](C)[C@H](N)C2)c(F)cc2c(=O)n(N)c(=O)n(C3CC3)c12.Cl (relative stereo)
**Result** 209 °C

**Query** Fill blank: measured melting point of the compound COc1c(N2CC(N)C(OC)C2)c(F)cc2c(=O)n(N)c(=O)n(C3CC3)c12.Cl (stereo not shown) is ____.
**Result** > 250 °C

**Query** So what's the measured melting point for this one? Cl.NCC1CCN(c2c(Cl)cc3c(=O)n(N)c(=O)n(C4CC4)c3c2Cl)C1 (stereo not shown)
**Result** 147 to 149 °C

**Query** Need melting point, item COc1c(N2CC3CCCCC3(CN)C2)c(F)cc2c(=O)n(N)c(=O)n(C3CC3)c12.Cl (stereo not shown)
**Result** > 250 °C

**Query** Requested field: melting point. Item: CC1CCc2c(N3CC[C@H](N)C3)c(F)cc3c(=O)n(N)c(=O)n1c23 (stereo partly shown) (as salt: hydrochloride)
**Result** 202 to 204 °C

**Query** // returns reported melting point for input COc1c(N2CCC(F)(C(C)N)C2)c(F)cc2c(=O)n(N)c(=O)n(C3CC3)c12.Cl (stereo not shown)
**Result** 190 to 192 °C
